Experiment: Hemolysis assay
Format: cell-based
Non-standard residues stand in square brackets, D forms with d. Residues, ends and D or L forms follow the SMILES beside them. *: point of attachment. Palmitoyl = CCCCCCCCCCCCCCCC(=O)*; dOrn = NCCC[C@@H](N)C(=O)O; Dap = NC[C@H](N)C(=O)O
Mark each entry yes if its HC50 sits below 80 µg/mL, and no for all others.

*Q* Find out if reported HC50 for CCCCCCCCCCCCCCCC(=O)NCC(=O)N[C@@H](CCCNC(=N)N)C(=O)NCC(=O)N[C@@H](CCCNC(=N)N)C(=O)O [Pal-GR4, Pal-GRGR] (HELM PEPTIDE1{[CCCCCCCCCCCCCCCC(=O)[*:2]].G.R.G.R}$$$$V2.0) is less than 80 µg/mL
*A* no

*Q* Proceed to CCCCCCCCCCCCCCCC(=O)NCC(=O)N[C@@H](CCCNC(=N)N)C(=O)N[C@@H](CCCNC(=N)N)C(=O)NCC(=O)NCC(=O)N[C@@H](CCCNC(=N)N)C(=O)NCC(=O)NCC(=O)N[C@@H](CCCNC(=N)N)C(=O)NCC(=O)N[C@@H](CCCNC(=N)N)C(=O)NCC(=O)N[C@@H](CCCNC(=N)N)C(=O)O [Pal-GR13] (HELM PEPTIDE1{[CCCCCCCCCCCCCCCC(=O)[*:2]].G.R.R.G.G.R.G.G.R.G.R.G.R}$$$$V2.0)
*A* no

*Q* Proceed to CCCCCCCCCCCCCCCC(=O)NCC(=O)N[C@@H](CCCCN)C(=O)NCC(=O)N[C@@H](CCCCN)C(=O)O [Pal-GK4, Pal-GKGK] (HELM PEPTIDE1{[CCCCCCCCCCCCCCCC(=O)[*:2]].G.K.G.K}$$$$V2.0)
*A* yes

*Q* Proceed to CCCCCCCCCCCCCCCC(=O)NCC(=O)N[C@@H](CCCNC(=N)N)C(=O)N[C@@H](CCCNC(=N)N)C(=O)NCC(=O)NCC(=O)N[C@@H](CCCNC(=N)N)C(=O)NCC(=O)NCC(=O)N[C@@H](CCCNC(=N)N)C(=O)O [Pal-GR9] (HELM PEPTIDE1{[CCCCCCCCCCCCCCCC(=O)[*:2]].G.R.R.G.G.R.G.G.R}$$$$V2.0)
*A* no

*Q* Proceed to CCCCCCCCCCCCCCCC(=O)NCC(=O)N[C@H](CCCCN)C(=O)NCC(=O)N[C@H](CCCCN)C(=O)O [D-Pal-GK4, D-Pal-GKDGKD] (HELM PEPTIDE1{[CCCCCCCCCCCCCCCC(=O)[*:2]].G.[dK].G.[dK]}$$$$V2.0)
*A* yes

*Q* Proceed to CCCCCCCCCCCCCCCC(=O)NCC(=O)N[C@@H](CCCN)C(=O)N[C@@H](CCCN)C(=O)NCC(=O)NCC(=O)N[C@@H](CCCN)C(=O)NCC(=O)NCC(=O)N[C@@H](CCCN)C(=O)NCC(=O)N[C@@H](CCCN)C(=O)NCC(=O)N[C@@H](CCCN)C(=O)O [Pal-Orn-GR13, Pal-GOOGGOGGOGOGO] (HELM PEPTIDE1{[CCCCCCCCCCCCCCCC(=O)[*:2]].G.[Orn].[Orn].G.G.[Orn].G.G.[Orn].G.[Orn].G.[Orn]}$$$$V2.0)
*A* no

*Q* Proceed to CCCCCCCCCCCCCCCC(=O)NCC(=O)N[C@@H](CCCNC(=N)N)C(=O)N[C@@H](CCCNC(=N)N)C(=O)NCC(=O)NCC(=O)N[C@@H](CCCNC(=N)N)C(=O)NCC(=O)NCC(=O)N[C@@H](CCCNC(=N)N)C(=O)NCC(=O)N[C@@H](CCCNC(=N)N)C(=O)O [Pal-GR11] (HELM PEPTIDE1{[CCCCCCCCCCCCCCCC(=O)[*:2]].G.R.R.G.G.R.G.G.R.G.R}$$$$V2.0)
*A* no

*Q* Proceed to CCCCCCCCCCCCCCCC(=O)NCC(=O)N[C@H](CCCN)C(=O)NCC(=O)N[C@H](CCCN)C(=O)O [D-Pal-GOrn4, D-Pal-GODGOD] (Palmitoyl-G[dOrn]G[dOrn]-OH)
*A* yes

*Q* Proceed to CCCCCCCCCCCCCCCC(=O)NCC(=O)N[C@H](CCCNC(=N)N)C(=O)N[C@H](CCCNC(=N)N)C(=O)NCC(=O)NCC(=O)N[C@H](CCCNC(=N)N)C(=O)NCC(=O)NCC(=O)N[C@H](CCCNC(=N)N)C(=O)NCC(=O)N[C@H](CCCNC(=N)N)C(=O)NCC(=O)N[C@H](CCCNC(=N)N)C(=O)O [D-Pal-GR13] (HELM PEPTIDE1{[CCCCCCCCCCCCCCCC(=O)[*:2]].G.[dR].[dR].G.G.[dR].G.G.[dR].G.[dR].G.[dR]}$$$$V2.0)
*A* yes

*Q* Proceed to CCCCCCCCCCCCCCCC(=O)NCC(=O)N[C@H](CCCNC(=N)N)C(=O)NCC(=O)N[C@H](CCCNC(=N)N)C(=O)O [D-Pal-GR4, Pal-GRDGRD] (HELM PEPTIDE1{[CCCCCCCCCCCCCCCC(=O)[*:2]].G.[dR].G.[dR]}$$$$V2.0)
*A* no

*Q* Proceed to CCCCCCCCCCCCCCCC(=O)NCC(=O)N[C@@H](CCCNC(=N)N)C(=O)N[C@@H](CCCNC(=N)N)C(=O)NCC(=O)NCC(=O)N[C@@H](CCCNC(=N)N)C(=O)O [Pal-GR6, Pal-GRRGGR] (HELM PEPTIDE1{[CCCCCCCCCCCCCCCC(=O)[*:2]].G.R.R.G.G.R}$$$$V2.0)
*A* no

*Q* Proceed to CCCCCCCCCCCCCCCC(=O)NCC(=O)N[C@@H](CCCCN)C(=O)N[C@@H](CCCCN)C(=O)NCC(=O)NCC(=O)N[C@@H](CCCCN)C(=O)NCC(=O)NCC(=O)N[C@@H](CCCCN)C(=O)NCC(=O)N[C@@H](CCCCN)C(=O)NCC(=O)N[C@@H](CCCCN)C(=O)O [Pal-K-GR13] (HELM PEPTIDE1{[CCCCCCCCCCCCCCCC(=O)[*:2]].G.K.K.G.G.K.G.G.K.G.K.G.K}$$$$V2.0)
*A* no

*Q* Proceed to CCCCCCCCCCCCCCCC(=O)NCC(=O)N[C@@H](CN)C(=O)NCC(=O)N[C@@H](CN)C(=O)O [Pal-GDap4, Pal-GDapGDap] (Palmitoyl-G[Dap]G[Dap]-OH)
*A* no

*Q* Proceed to CCCCCCCCCCCCCCCC(=O)NCC(=O)N[C@H](CCCNC(=N)N)C(=O)N[C@H](CCCNC(=N)N)C(=O)NCC(=O)NCC(=O)N[C@H](CCCNC(=N)N)C(=O)NCC(=O)NCC(=O)N[C@H](CCCNC(=N)N)C(=O)O [D-Pal-GR9] (HELM PEPTIDE1{[CCCCCCCCCCCCCCCC(=O)[*:2]].G.[dR].[dR].G.G.[dR].G.G.[dR]}$$$$V2.0)
*A* no
